- testTarget: recombinant soluble homotrimeric HA, A/Anhui/1/05 H5N1 (Influenza A virus A/Anhui/1/2005(H5N1))
- measurementDescription: microarray, transfection SN IgG, trimeric HA
- testSettings: remark: other sources report otherwise
Assignment: determine reported Trimeric HA Binding: RLU for the given binders.
Give bare numbers, in RLU.

Solved entries:
1. TCN-555 (5246_L16) (antibody, V domains shown) VH: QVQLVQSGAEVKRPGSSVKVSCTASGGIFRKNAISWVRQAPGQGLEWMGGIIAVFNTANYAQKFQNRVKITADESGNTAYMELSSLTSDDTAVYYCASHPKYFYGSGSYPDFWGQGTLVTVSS VL: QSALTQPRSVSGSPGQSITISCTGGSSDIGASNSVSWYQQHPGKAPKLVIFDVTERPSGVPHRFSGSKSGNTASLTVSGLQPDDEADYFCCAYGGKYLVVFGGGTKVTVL :: 12200
2. TCN-523 (5248_A17) (antibody, V domains shown) VH: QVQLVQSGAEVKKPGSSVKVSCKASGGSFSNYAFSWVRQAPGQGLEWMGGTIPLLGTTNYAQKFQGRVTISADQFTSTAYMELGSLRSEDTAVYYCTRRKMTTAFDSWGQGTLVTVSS VL: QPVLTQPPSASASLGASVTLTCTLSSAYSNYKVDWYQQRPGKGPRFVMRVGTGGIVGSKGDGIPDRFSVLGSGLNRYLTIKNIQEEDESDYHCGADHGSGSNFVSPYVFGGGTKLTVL :: 6080

--- query ---
Input: Using the record for TCN-504 (3251_K17) (antibody, V domains shown) VH: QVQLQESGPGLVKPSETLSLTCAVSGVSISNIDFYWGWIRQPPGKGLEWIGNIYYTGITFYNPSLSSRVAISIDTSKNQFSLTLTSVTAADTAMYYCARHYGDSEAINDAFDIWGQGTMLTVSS VL: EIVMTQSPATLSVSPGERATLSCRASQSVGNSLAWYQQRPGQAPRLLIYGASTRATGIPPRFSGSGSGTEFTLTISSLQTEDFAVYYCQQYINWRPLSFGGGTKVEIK , report its Trimeric HA Binding: RLU.
Output: 37200

Source listed as patent US20150086555A1.
